Entry source: ChEMBL document CHEMBL1949550

System: Nucleic Acid
Assay: Binding affinity to human pre-hsa-mir-155 miRNA assessed as inhibition of dicer-catalysed (33P)-labelled pre-miRNA processing at 1 mM after 1 hr by PAGE analysis
Format: nucleic-acid assay
Details: values are per cent of control
Please go through the items and note down their residual activity.
All answers are understood in %, so give the number only.

Request: For Nucleic Acid, provide residual activity of CN[C@@H]1[C@@H](O[C@H]2O[C@H](CO)[C@@H](N)[C@H](O)[C@H]2O)OC2C[C@@H](N)[C@@H](O[C@H]3[C@H](O)[C@@H](O)[C@H](N)C[C@@H]3N)OC2[C@@H]1O (stereo partly drawn) please.
Result: 10

Request: For Nucleic Acid, provide residual activity of NC[C@@H]1O[C@H](O[C@H]2[C@@H](O)[C@H](O[C@@H]3[C@@H](O)[C@H](N)C[C@H](N)[C@H]3O[C@H]3O[C@H](CN)[C@@H](O)[C@H](O)[C@H]3N)O[C@@H]2CO)[C@H](N)[C@@H](O)[C@@H]1O (stereo in doubt; form 2) please.
Result: 10

Request: For Nucleic Acid, provide residual activity of NC[C@@H]1O[C@H](O[C@H]2[C@@H](O)[C@H](O[C@@H]3[C@@H](O)[C@H](N)C[C@H](N)[C@H]3O[C@H]3O[C@H](CN)[C@@H](O)[C@H](O)[C@H]3N)O[C@@H]2CO)[C@H](N)[C@@H](O)[C@@H]1O (stereo in doubt; form 1) please.
Result: 10
